Data credit: patent US20180148477A1

For each of the binders below, state its IC50.
molecular target: rh integrin α4β7 (R&D Systems #5397-A30) (human) (UniProt P13612); assay: competition ELISA vs MAdCAM-1
Bridge positions count the residues as written; N and C are the ends. Square brackets hold non-standard residues; d marks the D form. 1Nal = N[C@@H](Cc1cccc2ccccc12)C(=O)O; 2Nal = N[C@@H](Cc1ccc2ccccc2c1)C(=O)O; NMeR = CN[C@@H](CCCNC(=N)N)C(=O)O; β3hE = N[C@@H](CCC(=O)O)CC(=O)O; NMeK = CN[C@@H](CCCCN)C(=O)O; Pen = CC(C)(S)[C@H](N)C(=O)O; dNMeK = CN[C@H](CCCCN)C(=O)O

{"Binder": "Ac-[Pen][NMeR]SDTL[Pen][2Nal][dE][dK]-NH2 (disulfide 1-7; also: dimer via DIG) [SEQ ID NO: 29]", "IC50": "< 10 nM"}
{"Binder": "Ac-[Pen][NMeR]SDTL[Pen][1Nal]E[dNMeK]-NH2 (disulfide 1-7; SMILES CC(=O)N[C@@H]1C(=O)N(C)[C@@H](CCCNC(=N)N)C(=O)N[C@@H](CO)C(=O)N[C@@H](CC(=O)O)C(=O)N[C@@H]([C@@H](C)O)C(=O)N[C@@H](CC(C)C)C(=O)N[C@H](C(=O)N[C@@H](Cc2cccc3ccccc23)C(=O)N[C@@H](CCC(=O)O)C(=O)N(C)[C@H](CCCCN)C(N)=O)C(C)(C)SSC1(C)C) [SEQ ID NO: 18]", "IC50": "> 10 nM"}

Then this binder:
query: Which IC50 reading was recorded for the binder Ac-[Pen][NMeR]SDTL[Pen][1Nal][β3hE][NMeK]-NH2 (disulfide 1-7 (inferred); also: dimer via DIG linker) [SEQ ID NO: 142] ?
result: < 10 nM
